# Study System: ATP-dependent 6-phosphofructokinase (Trypanosoma brucei brucei)
# Protocol Details: qHTS Assay to Find Inhibitors of T. brucei phosphofructokinase; also: nearly all actives have a fitted effect of over 60% in size
# Condition Notes: T. brucei PFK, ADP-Glo luminescence; series mostly up to 57.5 µM
Screen size: about 330,000 compounds; about 560 (0.17%) were called active. Inconclusive results (about 1%) are left out. Calls follow the shape of the dose curve; as a rule, active = well fitted inhibition curve with a large enough effect; inconclusive = small, poorly fitted or top-dose-only effect, or effect the other way; inactive = flat fitted curve, though single readings scatter. The full list was thinned out, with actives kept by preference.
Give your call using only these classes: active, inactive

Before answering, review these 6 worked examples.
{"Molecule": "N#Cc1ccccc1-n1c(N)c(C(=O)N2CCCC2)sc1=S", "Study System": "ATP-dependent 6-phosphofructokinase (Trypanosoma brucei brucei)", "Label Class": "inactive"}
{"Molecule": "COc1cccc(S(=O)(=O)NCc2ccc(C(=O)NCc3ccccn3)cc2)c1", "Study System": "ATP-dependent 6-phosphofructokinase (Trypanosoma brucei brucei)", "Label Class": "inactive"}
{"Molecule": "CC(C)[C@H](NC(=O)N1CCn2c1nc1ccccc12)C(=O)NCCc1ccccc1", "Study System": "ATP-dependent 6-phosphofructokinase (Trypanosoma brucei brucei)", "Label Class": "inactive"}
{"Molecule": "CCOc1ccc(NC(=O)c2ccc(CSc3nnnn3C)cc2)cc1", "Study System": "ATP-dependent 6-phosphofructokinase (Trypanosoma brucei brucei)", "Label Class": "inactive"}
{"Molecule": "CCOC(=O)c1c(/N=C/C2C(=O)CC(C)(C)CC2=O)sc(C)c1C", "Study System": "ATP-dependent 6-phosphofructokinase (Trypanosoma brucei brucei)", "Label Class": "inactive"}
{"Molecule": "Cc1cccc(NC(=S)Nc2ccc3cn[nH]c3c2)c1", "Study System": "ATP-dependent 6-phosphofructokinase (Trypanosoma brucei brucei)", "Label Class": "inactive"}

Input: Tell me the assay call for Cc1c(Cl)cccc1NC(=O)Nc1ccc(C(=O)N2CCCC2)cc1 please.
Output: inactive

Input: Tell me the assay call for Cc1ccc(-n2c(N)c(C(=O)N3CCOCC3)sc2=S)c(C)c1 please.
Output: inactive

Input: Tell me the assay call for Cc1cccc(CCNS(=O)(=O)c2ccc(S(=O)(=O)NC3CCCC3)cc2)c1 please.
Output: inactive

Input: Tell me the assay call for Cc1cccc(-n2c(N)c(C(=O)N3CCN(C)CC3)sc2=S)c1 please.
Output: active
